src = ChEMBL document CHEMBL2218924

TGT: Serine/threonine-protein kinase Nek2 (Homo sapiens)
Sequence (whole entry): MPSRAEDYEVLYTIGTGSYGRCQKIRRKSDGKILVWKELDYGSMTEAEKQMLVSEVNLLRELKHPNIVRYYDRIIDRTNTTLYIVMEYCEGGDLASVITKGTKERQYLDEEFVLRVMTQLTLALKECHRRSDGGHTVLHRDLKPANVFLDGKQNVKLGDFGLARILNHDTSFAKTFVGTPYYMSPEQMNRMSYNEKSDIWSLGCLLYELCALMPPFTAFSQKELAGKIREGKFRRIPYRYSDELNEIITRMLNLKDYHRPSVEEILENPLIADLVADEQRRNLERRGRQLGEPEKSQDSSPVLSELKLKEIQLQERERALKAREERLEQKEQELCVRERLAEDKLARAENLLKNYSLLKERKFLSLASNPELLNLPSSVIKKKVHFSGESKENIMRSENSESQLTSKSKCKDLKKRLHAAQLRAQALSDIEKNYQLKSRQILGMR
CONDITION INFO: at 1 µM
Description: Millipore: Percentage of residual kinase activity of NEK2 at 1uM relative to control. Control inhibitor: Phosphoric acid* at 0.3uM. Buffer: 8 mM MOPS pH 7.0, 0.2 mM EDTA
Binning scheme for residual activity: lower: < 80%; middle: ≥ 80% and < 90%; upper: ≥ 90%

ITEM SMILES | ASSIGNED CATEGORY
Nc1ncnc2c1c(-c1ccc(Oc3ccccc3)cc1)cn2C1CCCC1 | lower
Cn1sc(=O)n(Cc2ccccc2)c1=O | upper
CCCC(=O)Oc1ccc2[nH]c(C(=O)c3cc4ccccc4[nH]3)cc2c1 | lower
O=C(c1cc2cc(O)ccc2[nH]1)c1cc2cc(O)ccc2[nH]1 | lower
Cn1c2ccccc2c2c3c(c4c5ccccc5n(CCC#N)c4c21)CNC3=O | lower
CCN(CC)CCNC(=O)c1c(C)[nH]c(/C=C2\C(=O)Nc3ccc(Cl)cc32)c1C | lower
Nc1nc(Nc2ccc(S(N)(=O)=O)cc2)nn1C(=O)c1c(F)cccc1F | upper
NC(=O)Nc1sc(-c2ccc(F)cc2)cc1C(N)=O | middle
O=C1C(Cl)=C(N2C(=O)CCC2=O)C(=O)c2ccccc21 | upper
O=C(Nc1nc2ccccc2n1CCN1CCOCC1)c1cccc([N+](=O)[O-])c1 | lower
O=C1NC(=O)c2c1c1c3ccccc3[nH]c1n1cncc21 | lower
Nc1ncnc2c1cnn2-c1ccccc1 | middle
CN(C)S(=O)(=O)c1ccc2c(c1)/C(=C/c1cc3c([nH]1)CCCC3)C(=O)N2 | upper

* * *

TGT: Calcium/calmodulin-dependent protein kinase type II subunit delta (Homo sapiens)
CONDITION INFO: at 1 µM
Binning scheme for residual activity: lower range (below 70%), middle range (70% to below 90%), upper range (90% or more)

MOLECULE | ASSIGNED CATEGORY
Nc1ncnc2c1c(-c1ccc(Oc3ccccc3)cc1)cn2C1CCCC1 | upper range
O=C1NC(=O)c2c1c1c3ccccc3[nH]c1n1cncc21 | lower range
O=C(c1cc2cc(O)ccc2[nH]1)c1cc2cc(O)ccc2[nH]1 | lower range
Nc1nc(Nc2ccc(S(N)(=O)=O)cc2)nn1C(=O)c1c(F)cccc1F | middle range
CC(C)c1nn(-c2c(Cl)cccc2Cl)c2nc(Cc3ccc(OCCO)cc3)[nH]c(=O)c12 | upper range
O=C(O)/C=C/c1cc(Br)c(Br)c(Br)c1Br | middle range
O=C1NC(=O)C(c2cn(CCCO)c3ncccc23)=C1c1cnccn1 | middle range
COc1cc2nccc(Oc3ccc(NC(=O)Nc4cc(C)on4)c(Cl)c3)c2cc1OC | upper range
O=C1NC(=O)C(c2c[nH]c3ccccc23)=C1c1c[nH]c2ccccc12 | lower range
O=C1NC(=O)C(c2cn(CCCn3ccnc3)c3ccccc23)=C1Nc1ccccc1 | middle range
O=C(CCCc1ccc(-c2ccccc2F)cc1)Nc1ccc(O)cc1 | upper range
Cn1c2ccccc2c2c3c(c4c5ccccc5n(CCC#N)c4c21)CNC3=O | lower range
CSc1nc(-c2ccc(F)cc2)c(-c2ccnc(NC(C)c3ccccc3)c2)[nH]1 (stereo not drawn) | upper range
O=C(c1ccccc1)c1ccc(N2CCOCC2)cc1O | upper range
N#C/C(=C1/Nc2ccccc2S1)c1ccnc(NCCc2cccnc2)n1 | middle range
Nc1n[nH]c2nc3ccccc3nc12 | middle range
O=C1Nc2ccccc2/C1=C\c1c(Cl)[nH]c2ccccc12 | middle range
CC(C)[C@H](CO)Nc1nc(Nc2cc(N)cc(Cl)c2)c2ncn(C(C)C)c2n1 | middle range
CCCCc1c(-c2ccc(OC)cc2)[nH]c2nccnc12 | middle range
c1ccc(-c2cnc(Nc3ccc(OCCN4CCCC4)cc3)s2)cc1 | lower range
COc1ccc(-c2cnc3c(-c4ccsc4)cnn3c2)cc1 | middle range
CCCCc1c(-c2ccc(O)cc2)[nH]c2nccnc12 | lower range
